Target: UniProt:P35869
Assay: DRE-Luciferase reporter high-throughput screen (AHR antagonist, VAF347-activated)
MEASURED QUANTITY: IC50

// known answers, use as guide
Cc1ccc(-c2c(C)sc(NC(=O)c3cccnc3)c2C(N)=O)cc1 : 0.5 to 1 µM
Cc1ccc(-c2cc(-c3ccccc3)c3c(N)c(S(C)(=O)=O)sc3n2)cc1 [169A] : 1 to 2 µM
O=C(c1csc(-c2ccc(Cl)cc2)c1)N1CCCCC1 [148A] : 1 to 2 µM
N#Cc1c(NC(=O)Nc2ccc(Cl)c(Cl)c2)sc2c1C1CCN2CC1 [192A] : 1 to 2 µM
Cc1nn2c(-c3cccc(NC(=O)CN4CCCCC4)c3)nnc2c2ccccc12 [119B] : 0.2 to 0.5 µM
CNc1nc(-c2sc3ncnn3c2C)cs1 [40B] : 1 to 2 µM
Fc1ccc(-c2cc(-c3ccccc3)nc(-n3cccn3)n2)cc1 : < 0.2 µM
COc1cc(OC)c(NC(=O)c2[nH]nc3c2CSc2ccccc2-3)cc1Cl : 0.2 to 0.5 µM

QUERY: Tell me the measured IC50 of COc1ccccc1-c1nnc(SCc2cccc3ccccc23)n1C , please.
RESULT: 0.5 to 1 µM

QUERY: Tell me the measured IC50 of O=C(Nc1ccccc1Cl)c1cnc(-c2noc3ccccc23)s1 , please.
RESULT: 0.2 to 0.5 µM

QUERY: Tell me the measured IC50 of Cc1nnc(Oc2ccc(Cl)cc2Cl)c2ccccc12 [159A] , please.
RESULT: 1 to 2 µM

QUERY: Tell me the measured IC50 of COc1c(C(=O)Nc2ccc(Cl)cc2)ccc2ccccc12 [20B] , please.
RESULT: 0.5 to 1 µM

QUERY: Tell me the measured IC50 of CS(=O)(=O)N1CCc2cc(-c3csc(Cc4cn5cc(Cl)cc(Cl)c5n4)n3)ccc21 [57A] , please.
RESULT: 1 to 2 µM

QUERY: Tell me the measured IC50 of CNC(=O)N(C)C(=O)c1cnc2onc(-c3ccc(C)cc3)c2c1 [173A] , please.
RESULT: 1 to 2 µM

* * *

System: mobilized peripheral blood CD34+ cells
Assay: CD34+ expansion assay
Type: cell-based
Settings: Homo sapiens; read-out: CD34 Frequency EC50
Listed below: EC50 values for each entry.

// known answers, use as guide
Cc1cccc(NC(=O)c2cc(-c3ccc(C)cc3O)n[nH]2)c1 [compound 20] : 500 to 1000 nM
Cc1ccn2c(-c3csc(Nc4ccccn4)n3)c(C)nc2c1 [compound 60] : 1000 to 5000 nM
COc1ccc(NC(=O)c2nnn(-c3cc(C)cc(C)c3)c2C)c(OC)c1 [compound 22] : 500 to 1000 nM

QUERY: Tell me the measured EC50 of Clc1ccc(COc2ccc(-c3ccnc4ccnn34)cc2)cc1 [compound 104] , please.
RESULT: 1000 to 5000 nM

QUERY: Tell me the measured EC50 of O=C(Nc1ccc2ccccc2n1)c1ccccc1Cl [compound 12] , please.
RESULT: 500 to 1000 nM

* * *

Listed below: IC50 values for each entry.
Target: aryl hydrocarbon receptor (AHR) (Homo sapiens)
Sequence (P35869 11-848): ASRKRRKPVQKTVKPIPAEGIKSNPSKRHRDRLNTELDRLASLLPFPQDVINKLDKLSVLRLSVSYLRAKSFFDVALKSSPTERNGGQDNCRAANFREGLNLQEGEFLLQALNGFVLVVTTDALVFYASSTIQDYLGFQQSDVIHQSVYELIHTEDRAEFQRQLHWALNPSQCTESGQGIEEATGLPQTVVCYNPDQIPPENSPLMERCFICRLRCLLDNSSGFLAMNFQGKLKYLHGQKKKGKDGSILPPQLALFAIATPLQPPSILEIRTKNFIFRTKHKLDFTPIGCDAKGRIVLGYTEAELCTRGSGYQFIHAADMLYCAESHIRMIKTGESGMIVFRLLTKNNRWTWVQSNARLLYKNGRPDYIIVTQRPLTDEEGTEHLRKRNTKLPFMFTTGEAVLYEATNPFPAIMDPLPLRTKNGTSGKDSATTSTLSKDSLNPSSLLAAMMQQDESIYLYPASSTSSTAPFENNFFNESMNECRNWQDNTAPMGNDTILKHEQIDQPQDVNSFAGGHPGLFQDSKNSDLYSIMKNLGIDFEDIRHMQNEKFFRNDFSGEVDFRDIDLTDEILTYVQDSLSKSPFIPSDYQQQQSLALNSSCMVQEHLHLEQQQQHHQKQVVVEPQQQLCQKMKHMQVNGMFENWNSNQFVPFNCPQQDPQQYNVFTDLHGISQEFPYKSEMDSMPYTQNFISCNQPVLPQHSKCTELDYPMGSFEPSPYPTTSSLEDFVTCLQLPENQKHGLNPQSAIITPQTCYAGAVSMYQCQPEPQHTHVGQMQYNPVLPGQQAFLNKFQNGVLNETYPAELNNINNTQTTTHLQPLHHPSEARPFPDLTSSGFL
Assay: DRE-Luciferase reporter high-throughput screen (AHR antagonist, VAF347-activated)

Clc1ccc(Nc2nnc(-c3ccncc3)s2)cc1 [98B] : 1 to 2 µM

QUERY: Tell me the measured IC50 of CCOC(=O)c1sc(NC(=O)c2sccc2C)cc1C , please.
RESULT: 0.5 to 1 µM

QUERY: Tell me the measured IC50 of Clc1ccccc1CNc1ccc(-c2ccccc2)nn1 [87A] , please.
RESULT: 1 to 2 µM
